Reference for the values: the supplement of paper PMC8617591

Catalogue of compounds with associated GRinf
- System: Mycobacterium tuberculosis Erdman (autoluminescent)
- testSummary: GRinf, maximum normalised growth rate inhibition (unitless (-1 to 1)); higher = less effect (negative = killing)
- conditionSet: in vitro model: valerate; time point: constant (~7 days, model-specific)

structureAsSmiles	systemName	GRinf
CC(=O)NC[C@H]1CN(c2ccc(N3CCOCC3)c(F)c2)C(=O)O1	Mycobacterium tuberculosis Erdman (autoluminescent)	-0.0706
CC[C@@H](CO)NCCN[C@@H](CC)CO	Mycobacterium tuberculosis Erdman (autoluminescent)	0.301
COc1nc2ccc(Br)cc2cc1[C@@H](c1ccccc1)[C@@](O)(CCN(C)C)c1cccc2ccccc12	Mycobacterium tuberculosis Erdman (autoluminescent)	-0.142
O=[N+]([O-])c1cn2c(n1)OC[C@@H](OCc1ccc(OC(F)(F)F)cc1)C2	Mycobacterium tuberculosis Erdman (autoluminescent)	-0.0946
